System: Rotifers
protocol_summary: Viability of rotifers against hydrogen peroxide toxicity at 10 uM
Assay type: organism-based
applied_conditions: Rotifera; read-out: Activity
endpoint: survival at 10 µM (%)

                                   compound           endpoint  value_reported
0            CC(C)(C)/[N+]([O-])=C/c1ccccc1  survival at 10 µM            25.6
1  Cc1c(C)c2c(c(C)c1O)CCC(C)(C(=O)O)O2 (centres undefined)  survival at 10 µM              13
2                  O=C(O)CCc1c[nH]c2ccccc12  survival at 10 µM            67.9
3     O=C(O)CCCCC1CCSS1 (centres undefined)  survival at 10 µM            14.1
